biological target: memapsin 2 (Homo sapiens); test: Inhibition of memapsin 2 beta-secretase activity (fluorogenic substrate FS-2); format: biochemical; settings: memapsin 2, pH 4, 37° C., 20 minutes pre-incubation; read-out: M2Ki
Sequence (P56817 46-501): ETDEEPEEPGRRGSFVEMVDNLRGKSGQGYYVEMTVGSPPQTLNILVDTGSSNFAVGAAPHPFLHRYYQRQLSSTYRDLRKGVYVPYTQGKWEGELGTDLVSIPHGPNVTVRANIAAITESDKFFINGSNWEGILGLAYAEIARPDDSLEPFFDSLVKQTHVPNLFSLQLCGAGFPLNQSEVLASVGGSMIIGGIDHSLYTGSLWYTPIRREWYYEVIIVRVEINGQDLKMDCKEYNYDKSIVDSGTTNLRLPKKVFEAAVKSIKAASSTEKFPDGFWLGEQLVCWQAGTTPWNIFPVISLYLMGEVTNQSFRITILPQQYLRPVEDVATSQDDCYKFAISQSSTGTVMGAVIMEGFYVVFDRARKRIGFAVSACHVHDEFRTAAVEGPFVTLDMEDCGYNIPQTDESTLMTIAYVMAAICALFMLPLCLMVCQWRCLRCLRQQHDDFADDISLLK
Exercise: for every item that follows, state its recorded Ki.

Recorded results for 2 compounds are shown here.
[
  {
    "compound": "COc1cccc(CNC[C@@H](O)[C@H](Cc2ccccc2)NC(=O)c2cc(C(=O)NCc3cccc(C)n3)cc(N(C)S(C)(=O)=O)c2)c1 [Compound 127]",
    "target": "memapsin 2 (Homo sapiens)",
    "measurementType": "Ki",
    "result": "> 0.501 µM"
  },
  {
    "compound": "COc1cc(C(=O)N[C@@H](Cc2ccccc2)[C@H](O)CNCc2cccc(C(F)(F)F)c2)cc(C(=O)N(C)Cc2nc(C)cs2)c1 [Compound 31]",
    "target": "memapsin 2 (Homo sapiens)",
    "measurementType": "Ki",
    "result": "< 0.3 µM"
  }
]

Report Ki for every entry below.
1. Cc1csc(CN(C(=O)c2cc(C(=O)N[C@@H](Cc3ccccc3)[C@H](O)CNCc3cncc(C(C)C)c3)cc(-c3ncco3)c2)C2CC2)n1 [Compound 186]
2. Cc1csc(CN(C)C(=O)c2cccc(C(=O)N[C@@H](Cc3ccccc3)[C@H](O)CNCc3cc(N(C)C)cc(N(C)C)c3)c2)n1 [Compound 185]
3. Cc1csc(CN(C)C(=O)c2cc(OS(C)(=O)=O)cc(C(=O)N[C@@H](Cc3ccccc3)[C@H](O)CNCc3cncc(C(C)C)c3)c2)n1 [Compound 100]
4. Cc1csc(CN(C)C(=O)c2cccc(C(=O)N[C@@H](Cc3ccccc3)[C@H](O)CNCc3cc(C(C)C)cc(S(C)(=O)=O)c3)c2)n1 [Compound 150]

1: < 0.3 µM; 2: < 0.3 µM; 3: < 0.3 µM; 4: < 0.3 µM

Report Ki for every entry below.
1. Cc1csc(CN(C)C(=O)c2cccc(C(=O)N[C@@H](Cc3ccccc3)[C@H](O)CNCc3cccc4cc[nH]c34)c2)n1 [Compound 39]
2. COc1cccc(CNC[C@@H](O)[C@H](Cc2ccccc2)NC(=O)c2cc(F)cc(C(=O)N(C)Cc3nc(C)cs3)c2)c1 [Compound 4]

< 0.3 µM
< 0.3 µM

====

target: memapsin 2 (Homo sapiens); assay: Inhibition of memapsin 2 beta-secretase activity (fluorogenic substrate FS-2); format: biochemical; details: memapsin 2, pH 4, 37° C., fluorogenic substrate FS-2; read-out: M2Ki
measurementType: Ki

[
  {
    "lineNotation": "CC(C)c1cncc(CNC[C@@H](O)[C@H](Cc2ccccc2)NC(=O)c2cccc(C(=O)N(C)Cc3nc(C(F)F)cs3)c2)c1",
    "Ki": "< 300 nM"
  },
  {
    "lineNotation": "Cc1csc(CN(C)C(=O)c2cc(C(=O)N[C@@H](Cc3ccccc3)[C@H](O)CNCc3cncc(C(C)(C)F)c3)cc(-c3ccoc3)c2)n1",
    "Ki": "< 300 nM"
  },
  {
    "lineNotation": "Cc1csc(CN(C)C(=O)c2cccc(C(=O)N[C@@H](Cc3ccccc3)[C@H](O)CNCc3cc(CS(C)(=O)=O)cc(C(C)C)c3)c2)n1",
    "Ki": "< 300 nM"
  }
]

Report Ki for every entry below.
1. Cc1csc(CN(C)C(=O)c2cc(C(=O)N[C@@H](Cc3ccccc3)[C@H](O)CNCc3cncc(C(C)C)c3)cc(-c3cnco3)c2)n1
2. Cc1csc(CN(C)C(=O)c2cc(C(=O)N[C@@H](Cc3ccccc3)[C@H](O)CNCc3cccc(C(F)(F)F)c3)cc(-c3ncco3)c2)n1
3. Cc1csc(CN(C)C(=O)c2cc(C(=O)N[C@@H](Cc3ccccc3)[C@H](O)CNCc3cncc(C(C)(C)F)c3)cc(C(C)C)c2)n1
4. COc1cccc([C@H](C)NC[C@@H](O)[C@H](Cc2ccccc2)NC(=O)c2cc(C(=O)N(C)Cc3nc(C)cs3)cc(-c3ncco3)c2)c1
5. Cc1csc(CN(C)C(=O)c2cc(C(=O)N[C@@H](Cc3ccccc3)[C@H](O)CNCc3cncc(C(C)(F)F)c3)cc(N(C)C)c2)n1
6. CN(Cc1nc(C(F)F)cs1)C(=O)c1cccc(C(=O)N[C@@H](Cc2ccccc2)[C@H](O)CNCc2cncc(C(C)(C)F)c2)c1
7. Cc1csc(CN(C)C(=O)c2cc(C(=O)N[C@@H](Cc3ccccc3)[C@H](O)CNCc3cncc(C(C)C)c3)cc(-c3ccc(F)nc3)c2)n1

1: < 300 nM; 2: < 300 nM; 3: < 300 nM; 4: < 300 nM; 5: < 300 nM; 6: < 300 nM; 7: < 300 nM

Report Ki for every entry below.
1. COC1(OC)CCN(c2cc(C(=O)N[C@@H](Cc3ccccc3)[C@H](O)CNCc3cncc(C(C)C)c3)cc(C(=O)N(C)Cc3nc(C)cs3)c2)C1
2. Cc1csc(CN(C)C(=O)c2cccc(C(=O)N[C@@H](Cc3ccccc3)[C@H](O)CNCc3cc(OC(=O)CN(C)C)cc(C(C)C)c3)c2)n1

< 300 nM
< 300 nM

// data source = patent US20100286145A1
